Please provide measured IC50 for the entries that follow.
# Target Of Assay: NRAS G12C (Homo sapiens (Human), UniProt P01111+P62937, G12C)
# Sequence (P01111 whole entry G12C): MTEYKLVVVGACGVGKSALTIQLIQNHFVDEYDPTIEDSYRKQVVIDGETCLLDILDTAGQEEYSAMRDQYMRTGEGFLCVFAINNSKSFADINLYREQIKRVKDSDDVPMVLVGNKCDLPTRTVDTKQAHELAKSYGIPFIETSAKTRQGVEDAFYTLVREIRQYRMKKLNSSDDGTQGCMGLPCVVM
# Sequence (P62937 whole entry): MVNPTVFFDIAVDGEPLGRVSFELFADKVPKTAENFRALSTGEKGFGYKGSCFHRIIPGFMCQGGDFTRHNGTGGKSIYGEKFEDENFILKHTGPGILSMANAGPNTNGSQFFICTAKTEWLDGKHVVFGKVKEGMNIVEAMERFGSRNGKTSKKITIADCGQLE
# Experimental Protocol: Ras-Raf (BRAF RBD) disruption / FRET / MOA assay, NRAS G12C
# Format: biochemical
# Study Conditions: read-out: IC50* NRAS G12C FRET data

What measured IC50 goes with CC#CC(=O)N1CC[C@]2(CCN([C@H](C(=O)N[C@H]3Cc4nc(cs4)-c4ccc5c(c4)c(c(-c4cccnc4[C@H](C)OC)n5CC)CC(C)(C)COC(=O)[C@@H]4CCCN(N4)C3=O)C(C)C)C2=O)C1 (atropisomer, axis not shown) ? 100 to 1000 nM

What measured IC50 goes with CCn1c(-c2cccnc2[C@H](C)OC)c2c3cc(ccc31)-c1cccc(c1)C[C@H](NC(=O)[C@H](C(C)C)N(C)C(=O)[C@H]1CCN(C(=O)C#C[C@@H]3COCCN3C)C1)C(=O)N1CCC[C@H](N1)C(=O)OCC(C)(C)C2 ? 10 to 100 nM

What measured IC50 goes with C=CC(=O)N1CC(OCC(C(=O)N[C@H]2Cc3cccc(c3)-c3ccc4c(c3)c(c(-c3cccnc3[C@H](C)OC)n4CC(F)(F)F)CC(C)(C)COC(=O)[C@@H]3CCCN(N3)C2=O)C(C)C)C1 (mixture of isomers) ? 1000 to 10000 nM

What measured IC50 goes with C=CC(=O)N(C)[C@H]1CC1N(C)C(=O)N(C)[C@H](C(=O)N[C@H]1Cc2nc(cs2)-c2ccc3c(c2)c(c(-c2cccnc2[C@H](C)OC)n3CC)CC(C)(C)COC(=O)[C@@H]2CCCN(N2)C1=O)C(C)C (some centres unmarked) ? 100 to 1000 nM

What measured IC50 goes with C=CC(=O)N1CCC2(CCN(C(=O)N(C)[C@H](C(=O)N[C@H]3Cc4cccc(c4)-c4ccc5c(c4)c(c(-c4cccnc4[C@H](C)OC)n5CC)CC(C)(C)COC(=O)[C@@H]4CCCN(N4)C3=O)C(C)C)CC2)C1 (atropisomer, axis not shown) ? 100 to 1000 nM

What measured IC50 goes with CCn1c(-c2cccnc2[C@H](C)OC)c2c3cc(ccc31)-c1cccc(c1)C[C@H](NC(=O)[C@H](C(C)C)N(C)C(=O)C1(F)CCN(C(=O)C#CC(C)(C)N(C)C)CC1)C(=O)N1CCC[C@H](N1)C(=O)OCC(C)(C)C2 (atropisomer, axis not shown) ? < 10 nM

What measured IC50 goes with C=CC(=O)N1CCN(C(=O)N(C)[C@H](C(=O)N[C@H]2Cc3nc(cs3)-c3ccc4c(c3)c(c(-c3cccnc3[C@H](C)OC)n4CC(F)(F)F)CC(C)(C)COC(=O)[C@@H]3CCCN(N3)C2=O)C(C)C)CC1 (atropisomer, axis not shown) ? 10 to 100 nM

What measured IC50 goes with C=CC(=O)N1CC[C@H](C(=O)N(C)[C@H](C(=O)N[C@H]2Cc3cc(O)cc(c3)-c3ccc4c(c3)c(c(-c3ccc(COC)cc3CN(C)C)n4CC)CC(C)(C)COC(=O)[C@@H]3CCCN(N3)C2=O)C(C)C)C1 ? 10 to 100 nM

Recorded values, source patent US11566007B2.
